# tested_target: BRD4 bromodomains (Homo sapiens, UniProt O60885)
# Construct: fused on or other part: T7 phage capsid protein (phage-display fusion; the phage DNA is read out by qPCR)
# procedure_text: BROMOscan bromodomain competition binding assay (DiscoveRx)
# assay_setup: Kd from 11 compound concentrations ranging from 0 to 10 μM, read-out: BROMOscan Relative Activity
pKd: −log10 of the molar value.
parameter_measured: pKd

# sample_smiles, pKd
rows = [
    ("Cc1noc(C)c1-c1ccc2nc(-c3cnn(C)c3)nc(NCc3cccc(Cl)c3)c2c1", "> 6.30"),
    ("Cc1noc(C)c1-c1ccc2nc(C(=O)NCC3CN(C)C3)nc(NC3(c4cccc(Cl)c4)CC3)c2c1", "> 6.30"),
    ("Cc1noc(C)c1-c1ccc2nc(N3CCC(C)(C#N)CC3)nc(NCc3cccc(Cl)c3)c2c1", "5.30 to 6.30"),
]

Okay, now this compound:
Data request, read-out pKd, for CN(C)C(=O)Cn1cc(-c2nc(NCc3cncc(Cl)c3)c3cc(-c4ccc(=O)n(C)c4)ccc3n2)cn1
> 6.30

Just for reference, patent US11028079B2 is where these values come from.
